Values compiled from patent US20040265797A1.

Target: T1, Soluble recombinant human urokinase receptor (suPAR) (human, UniProt Q03405 23-299, limits assumed, biotinylated in the plate assays (sites not given))
T1 construct: Only called a soluble truncated form of the urokinase receptor; also called soluble uPAR; biotinylated suPAR
T1 sequence (Q03405 23-299 limits assumed): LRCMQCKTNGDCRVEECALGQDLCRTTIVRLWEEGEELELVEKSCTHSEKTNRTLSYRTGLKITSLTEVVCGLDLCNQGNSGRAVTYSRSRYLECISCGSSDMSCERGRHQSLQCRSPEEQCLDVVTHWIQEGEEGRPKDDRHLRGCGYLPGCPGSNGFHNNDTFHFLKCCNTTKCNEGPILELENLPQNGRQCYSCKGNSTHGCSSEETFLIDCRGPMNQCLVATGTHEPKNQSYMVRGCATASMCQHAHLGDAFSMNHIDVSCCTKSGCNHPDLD
Test: competition with phage displaying peptide 25 for soluble uPAR
Square brackets hold non-standard residues; d marks the D form. Ends that are not written are not given here.
The following binders are shown together with reported % Inhibition at 5 uM values.
Record the value in %, omitting the unit from your answer.

binder: AESTYHHLSLGYMYTL[dN]-NH2 (N-terminus assumed; SMILES CSCC[C@H](NC(=O)[C@H](Cc1ccc(O)cc1)NC(=O)CNC(=O)[C@H](CC(C)C)NC(=O)[C@H](CO)NC(=O)[C@H](CC(C)C)NC(=O)[C@H](Cc1c[nH]cn1)NC(=O)[C@H](Cc1c[nH]cn1)NC(=O)[C@H](Cc1ccc(O)cc1)NC(=O)[C@@H](NC(=O)[C@H](CO)NC(=O)[C@H](CCC(=O)O)NC(=O)[C@H](C)N)[C@@H](C)O)C(=O)N[C@@H](Cc1ccc(O)cc1)C(=O)N[C@H](C(=O)N[C@@H](CC(C)C)C(=O)N[C@H](CC(N)=O)C(N)=O)[C@@H](C)O) [Analog 61]
unit.annotation: %
% Inhibition at 5 uM: 55
//
binder: [dA]ESTYHHLSLGYMYTLN-NH2 (N-terminus assumed; SMILES CSCC[C@H](NC(=O)[C@H](Cc1ccc(O)cc1)NC(=O)CNC(=O)[C@H](CC(C)C)NC(=O)[C@H](CO)NC(=O)[C@H](CC(C)C)NC(=O)[C@H](Cc1c[nH]cn1)NC(=O)[C@H](Cc1c[nH]cn1)NC(=O)[C@H](Cc1ccc(O)cc1)NC(=O)[C@@H](NC(=O)[C@H](CO)NC(=O)[C@H](CCC(=O)O)NC(=O)[C@@H](C)N)[C@@H](C)O)C(=O)N[C@@H](Cc1ccc(O)cc1)C(=O)N[C@H](C(=O)N[C@@H](CC(C)C)C(=O)N[C@@H](CC(N)=O)C(N)=O)[C@@H](C)O) [Analog 46]
unit.annotation: %
% Inhibition at 5 uM: 57

Dear colleague, I am looking for the recorded % Inhibition at 5 uM of the following binder: AESTYHHLSLGYVYTLN-NH2 [Analog 43]
82
